Experimental System: P. falciparum apicoplast DNA polymerase (Pf-apPOL) (Plasmodium falciparum, UniProt Q8ILY1)
Sequence (Q8ILY1 entry or part of it): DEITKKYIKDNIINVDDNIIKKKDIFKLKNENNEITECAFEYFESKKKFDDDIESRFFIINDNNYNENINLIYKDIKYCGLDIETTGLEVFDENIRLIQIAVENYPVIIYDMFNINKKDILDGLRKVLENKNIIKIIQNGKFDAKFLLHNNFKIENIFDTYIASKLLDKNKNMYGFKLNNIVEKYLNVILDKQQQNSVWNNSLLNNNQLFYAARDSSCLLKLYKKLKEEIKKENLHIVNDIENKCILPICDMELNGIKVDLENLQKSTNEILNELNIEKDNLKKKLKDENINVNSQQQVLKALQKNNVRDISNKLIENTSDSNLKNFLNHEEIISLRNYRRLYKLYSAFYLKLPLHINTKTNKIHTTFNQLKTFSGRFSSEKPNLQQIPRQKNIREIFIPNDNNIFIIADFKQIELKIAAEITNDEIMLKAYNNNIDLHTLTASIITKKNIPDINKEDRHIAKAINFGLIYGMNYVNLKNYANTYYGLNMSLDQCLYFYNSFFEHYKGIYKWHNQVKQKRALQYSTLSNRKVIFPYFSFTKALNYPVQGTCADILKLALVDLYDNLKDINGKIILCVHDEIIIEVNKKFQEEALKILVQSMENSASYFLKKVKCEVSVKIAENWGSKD
Procedure Details: Fluorescence-based high-throughput DNA polymerase assay (molecular beacon), primary screen and dose-response;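 also: test concentration in µM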
Assay type: biochemical
Test Settings: DRC-2; 180'; concentration 40
Attribute Measured: % inhibition apPOL 180' (%)
Numeric answer only, unit % assumed.

Query: Item under review: "CCOc1ccc(/C=C2\N=C(c3cc([N+](=O)[O-])cc([N+](=O)[O-])c3)OC2=O)cc1" . Reported % inhibition apPOL 180'?
Result: 81

Query: Which % inhibition apPOL 180' value is on record for CCOc1ccc2cc(C3=NN(C(=O)CCC(=O)O)C(c4ccc(C)cc4)C3)c(=O)[nH]c2c1 (stereo not shown) ?
Result: 73

Query: For the molecule shown here, "O=C(NCC1CCN(C2CCCC2)CC1)C(=O)NC1CCCC1" , give the reported % inhibition apPOL 180'.
Result: 30

Query: Would you kindly share the measured % inhibition apPOL 180' for "O=c1cc(-c2ccccc2)oc2c(O)c(O)ccc12" ?
Result: 16

====

Experimental System: P. falciparum apicoplast DNA polymerase (Pf-apPOL) (Plasmodium falciparum, UniProt Q8ILY1)
Procedure Details: Fluorescence-based high-throughput DNA polymerase assay (molecular beacon), primary screen and dose-response;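 also: test concentration in µM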
Assay type: biochemical
Test Settings: DRC-1; 180'; concentration 2.5
Attribute Measured: % inhibition apPOL 180'
A bare number is not enough; add the unit after it.

Query: Item under review: CCC(C)NC(=O)c1cc(NC(C)=O)cc2nc(C)ccc12 (stereo not shown) . Reported % inhibition apPOL 180'?
Result: -4.723%

Query: // returns reported % inhibition apPOL 180' for input "Cc1ccc(C)c(CSc2nc(C3CCCCC3)c(C#N)c(=O)[nH]2)c1"
Result: -0.2009%

Query: Which % inhibition apPOL 180' value is on record for O=C(Cn1ccc2c(=O)[nH]ccc21)Nc1cccc(Cl)c1 [Molecule 23, O=C(Cn1ccc2c1cc[nH]c2=O)Nc1cccc(c1)Cl] ?
Result: -7.139%

Query: Param item = "O=C(CSc1nnc(-c2ccco2)[nH]1)c1ccc(Cl)cc1" ; retrieve measured % inhibition apPOL 180'.
Result: 10.7111%

====

I'd be grateful if you could share measured % inhibition apPOL 180' for these entries.
Experimental System: P. falciparum apicoplast DNA polymerase (Pf-apPOL) (Plasmodium falciparum)
Procedure Details: Fluorescence-based high-throughput DNA polymerase assay (molecular beacon), primary screen and dose-response
Type: biochemical
Test Settings: DRC-2; 180'; concentration 40
Entry rule: numbers only, all in %.

Query: Dear colleague, I am looking for the recorded % inhibition apPOL 180' of the following compound: CCCCSc1nnc2c(n1)OC(c1ccc([N+](=O)[O-])o1)Nc1ccccc1-2 (stereo not drawn)
Result: 64

Query: // % inhibition apPOL 180' lookup, key: "O=C(O)c1ccc(-c2nc3cc(-c4ccc5nc(-c6ccc(C(=O)O)cc6)[nH]c5c4)ccc3[nH]2)cc1"
Result: 56

Query: Query (compound): O=c1[nH]c2ccc(Br)cc2c(-c2ccccc2)c1C1=NNC(c2ccco2)C1 (stereo not drawn) ; field requested: % inhibition apPOL 180'
Result: 82

Query: // % inhibition apPOL 180' lookup, key: "COCCN(CCOC)Cc1c(O)ccc2c1OC(=Cc1cc(Br)ccc1OC)C2=O"
Result: 72

Query: For COc1ccc(NC(=O)Cn2ccc3c(=O)[nH]ccc32)cc1Cl [Molecule 10, COc1ccc(cc1Cl)NC(=O)Cn1ccc2c1cc[nH]c2=O] , what is its reported % inhibition apPOL 180'?
Result: 73

Query: Record request: % inhibition apPOL 180' value, item "Cc1cccc(CC(=O)N2CCc3c(nc4cc(-c5ccccc5)[nH]n4c3=O)C2)c1"
Result: 70

Query: # lookup: % inhibition apPOL 180' of "O=C(NNC(=O)c1ccc(Cl)cc1)C(=O)NNC(=O)c1ccc(Cl)cc1"
Result: 55

Query: Tell me the measured % inhibition apPOL 180' of "Cc1ccc(CNC(=O)c2cnn3c(O)cc(CSc4ccc(Cl)cc4)nc23)cc1" , please.
Result: 80

Query: // returns reported % inhibition apPOL 180' for input "COc1cc(NC(=O)c2ccccc2)c(OC)cc1NC(=O)Cc1cccs1"
Result: 67

Query: I have this compound here, Cc1cc(C)c2c(c1)C1C=CCC1C(c1ccc(C(=O)O)cc1)N2 (stereo not drawn) , and I need its recorded % inhibition apPOL 180'.
Result: 83

Query: I have this compound here, "CC1(C)CC(=O)C2=C(C1)OC1=C(C(=O)CC(C)(C)C1)C2c1ccc(O)cc1" , and I need its recorded % inhibition apPOL 180'.
Result: 61

Query: Query (compound): "O=C(Nc1ccc2c(c1)Cc1cc(NC(=O)c3ccco3)ccc1-2)c1ccco1" ; field requested: % inhibition apPOL 180'
Result: 68

Query: Any idea what its % inhibition apPOL 180' is? The compound is "NS(=O)(=O)c1ccc(NC(=O)c2ccc(N3C(=O)CCC3=O)cc2)cc1"
Result: 65

Query: Need % inhibition apPOL 180', item "Cc1ccc2c(C(=O)NCCc3cccnc3)cc(NC(=O)C(C)C)cc2n1"
Result: 57

Query: Fill in: % inhibition apPOL 180' of "COc1ccc(-c2n[nH]cc2Oc2ccc(Cl)cc2)c(O)c1" is ___
Result: 66

Query: # input compound: "O=C(O)C(=O)Nc1nc(-c2ccc3c(c2)OCCO3)cs1" ; wanted: its % inhibition apPOL 180'
Result: 25

Query: // query % inhibition apPOL 180' value for entry "Cc1cc(C)c(O)c(/N=C/c2cc([N+](=O)[O-])cc(Br)c2O)c1"
Result: 40

Query: Given the entry "COc1ccc(NC(=O)Cn2nc3c(cc2=O)CCC3)cc1Cl" , report its measured % inhibition apPOL 180'.
Result: 78

Data origin: paper PMC9090415
